Give measured pIC50 for each item. Keep answers brief.
System: HEK-293T
Experiment: Cytotoxicity against HEK293T cells assessed as reduction in cell viability incubated for 48 hrs by CCK8 assay
Settings: Homo sapiens
Numbers only, as −log10 of the molar value.

smilesRepr	experimentalTarget	reportedResult
O=S(=O)(NCCNC(=S)Nc1cc(C(F)(F)F)cc(C(F)(F)F)c1)c1sccc1-c1ccccc1Oc1ccc(O)c(O)c1	HEK-293T	5.12

Continue with the next compound.
Entry "O=C(NCCNS(=O)(=O)c1ccc(-c2ccccc2Oc2ccc(O)c(O)c2)s1)Nc1cc(Cl)cc(Cl)c1" ; pIC50 = 4.91

---

Target: Apoptosis regulator Bcl-2 (Homo sapiens)
Assay: Binding affinity to full length human Bcl-2 expressed in Escherichia coli BL21 (DE3) at up to 100 uM preincubated for 30 mins followed by 5-FAM-QEDIIIINIARHLAQVGDSMD-RSIPPG tracer addition and measured after 20 mins by fluorescence polarization assay
Conditions: dose microM <=100, time 50.0 min
The source made the active and inactive calls. The rule behind the calls is not given here.
reportedMetric: Activity

smilesRepr	Activity
CC(C)c1ccc(Oc2ccc(O)c(O)c2)c(-c2ccsc2S(=O)(=O)NCCNC(=O)Nc2cc(Cl)cc(Cl)c2)c1	inactive
COc1ccc(Oc2cc(C)ccc2-c2ccsc2S(=O)(=O)NCCNC(=O)Nc2cc(C(F)(F)F)cc(C(F)(F)F)c2)cc1OC	inactive
O=C(NCCNS(=O)(=O)c1ccc(-c2ccccc2OCc2cccc(O)c2)s1)Nc1cc(Cl)cc(Cl)c1	inactive
Cc1ccc(-c2ccsc2S(=O)(=O)NCCNC(=S)Nc2ccc([N+](=O)[O-])cc2)c(Oc2ccc(O)c(O)c2)c1	inactive
O=S(=O)(NCCNC(=S)Nc1ccc(Cl)cc1)c1ccc(-c2ccccc2OCc2ccccc2)s1	inactive
O=C(NCCNS(=O)(=O)c1ccc(-c2ccccc2OCc2ccccc2)s1)Nc1cc(Cl)cc(Cl)c1	inactive
O=[N+]([O-])c1cccc(NC(=S)NCCNS(=O)(=O)c2ccc(-c3ccccc3OCc3cccc(O)c3)s2)c1	inactive

Continue with the next molecule.
Entry "Cc1ccc(-c2ccsc2S(=O)(=O)NCCNC(=S)Nc2cc(C(F)(F)F)cc(C(F)(F)F)c2)c(Oc2ccc(O)c(O)c2)c1" ; Activity = inactive

---

Molecular target: Apoptosis regulator Bcl-2 (Homo sapiens, UniProt P10415)
Sequence (P10415 whole entry): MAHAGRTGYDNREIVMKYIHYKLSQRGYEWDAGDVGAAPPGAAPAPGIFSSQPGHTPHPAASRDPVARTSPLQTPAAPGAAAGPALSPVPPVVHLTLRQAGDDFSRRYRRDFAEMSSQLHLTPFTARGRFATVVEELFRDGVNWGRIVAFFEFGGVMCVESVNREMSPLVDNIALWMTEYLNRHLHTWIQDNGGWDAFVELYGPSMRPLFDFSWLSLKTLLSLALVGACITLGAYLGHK
Test: Binding affinity to full length human Bcl-2 expressed in Escherichia coli BL21 (DE3) at 100 uM preincubated for 30 mins followed by 5-FAM-QEDIIIINIARHLAQVGDSMD-RSIPPG tracer addition and measured after 20 mins by fluorescence polarization assay relative to control
Details: time 50.0 min
Give measured inhibition for each item. Keep answers brief.
Give bare numbers, in %.

smilesRepr	inhibition [%]
COc1ccc(Oc2ccccc2-c2ccsc2S(=O)(=O)N2CCN(C(=O)Nc3cc(C(F)(F)F)cc(C(F)(F)F)c3)CC2)cc1OC	23
COc1ccc(Oc2ccccc2-c2ccsc2S(=O)(=O)N2CCN(C(=S)Nc3cc(C(F)(F)F)cc(C(F)(F)F)c3)CC2)cc1OC	25
O=[N+]([O-])c1ccc(NC(=S)N2CCN(S(=O)(=O)c3sccc3-c3ccccc3Oc3ccc(O)c(O)c3)CC2)cc1	31
COc1ccc(Oc2ccccc2-c2ccsc2S(=O)(=O)N2CCN(C(=S)Nc3ccc(Cl)cc3)CC2)cc1OC	18
O=S(=O)(c1sccc1-c1ccccc1Oc1ccc(O)c(O)c1)N1CCN(C(=S)Nc2cc(C(F)(F)F)cc(C(F)(F)F)c2)CC1	20

// each listed molecule needs a value for inhibition
1. O=C(Nc1cccc([N+](=O)[O-])c1)N1CCN(S(=O)(=O)c2sccc2-c2ccccc2Oc2ccc(O)c(O)c2)CC1
2. O=[N+]([O-])c1ccc(Oc2ccc(O)c(O)c2)c(-c2ccsc2S(=O)(=O)N2CCN(C(=S)Nc3cc(C(F)(F)F)cc(C(F)(F)F)c3)CC2)c1
3. COc1ccc(Oc2ccc([N+](=O)[O-])cc2-c2ccsc2S(=O)(=O)N2CCN(C(=S)Nc3ccc([N+](=O)[O-])cc3)CC2)cc1OC

1: 30; 2: 12; 3: 16

// each listed molecule needs a value for inhibition
1. COc1ccc(Oc2ccc([N+](=O)[O-])cc2-c2ccsc2S(=O)(=O)N2CCN(C(=O)Nc3ccc([N+](=O)[O-])cc3)CC2)cc1OC
2. O=C(Nc1cc(C(F)(F)F)cc(C(F)(F)F)c1)N1CCN(S(=O)(=O)c2sccc2-c2ccccc2Oc2ccc(O)c(O)c2)CC1
3. O=S(=O)(c1sccc1-c1ccccc1Oc1ccc(O)c(O)c1)N1CCN(C(=S)Nc2ccc(Cl)cc2)CC1
4. O=C(Nc1ccc(F)cc1)N1CCN(S(=O)(=O)c2sccc2-c2ccccc2Oc2ccc(O)c(O)c2)CC1
5. COc1ccc(Oc2ccc([N+](=O)[O-])cc2-c2ccsc2S(=O)(=O)N2CCN(C(=S)Nc3ccc(Cl)cc3)CC2)cc1OC
6. COc1ccc(Oc2ccccc2-c2ccsc2S(=O)(=O)N2CCN(C(=O)Nc3ccc([N+](=O)[O-])cc3)CC2)cc1OC

[19, 7, 2, 33, 18, 17]

Entry "COc1ccc(Oc2ccccc2-c2ccsc2S(=O)(=O)N2CCN(C(=O)Nc3ccc(F)cc3)CC2)cc1OC" ; inhibition = 15
